Tested on: M14 melanoma
Assay: NCI tumour cell line growth inhibition, 48 h
Give TGI for every item shown.
One number for each entry, in µM.

Worked set:
molecule	TGI, µM
CC(=O)/C(=C\c1c(-c2ccccc2)[nH]c2ccccc12)S(=O)(=O)c1ccccc1	2.15
O[C@H]1[C@H](O)[C@@H](Cn2nnc(-c3ccccc3)c2-c2ccccc2)OCO[C@@H]1Cn1nnc(-c2ccccc2)c1-c1ccccc1	11.7
C[C@]12CC[C@@H]3c4ccc(O)cc4CC[C@H]3[C@@H]1CC[C@@H]2NS(=O)(=O)c1ccc2ccccc2c1	10.5

Working through the 3 molecules below one at a time, give TGI for each.
1. CC(=O)c1ccc2c(c1)N(CCCN(C)C)c1ccccc1S2
2. NCCN1C(=O)c2ccccc2C1(O)c1ccc(Cl)cc1 (stereo not given)
3. C#CC(=O)OCC#CCOC(=O)C#C

Solution:
30
36
49.5

###

Test system: UACC-257 melanoma
Assay: NCI tumour cell line growth inhibition, 48 h; in the data active means GI50 below about 0.43 µM; inactive means the rest
# output must be one of active, inactive

Exercise: Dear colleague, could you share the recorded outcome for `CNC(=O)c1cc2c(Oc3ccc(NC(=S)NC(=O)Cc4ccccc4)cc3F)ccnc2cc1OC` when you have a moment?
Solution: inactive

Exercise: Record lookup: outcome of this test for CCCCCSC1C2C(=O)C(Br)=CC13CCNc1c(O)c4c5c(c13)=[N+]2CCC=5C=N4 (stereo not given) ?
Solution: active

###

Tested on: LOX IMVI melanoma
Assay: NCI tumour cell line growth inhibition, 48 h
Field: TGI. Provide a value for each of the molecules that follow.

molecule	testedTarget	result
CS/C=C\C(=O)O[C@H]1C[C@@H]2[C@@H](O)c3occ(C)c3C[C@]2(C)[C@@H](C)C1	LOX IMVI melanoma	32.8 µM
COc1cc2c(cc1O)C(c1cc(O)c(O)c(OC)c1)C(O)(C(=O)O)C(CO)C2O (configuration not stated)	LOX IMVI melanoma	33.3 µM
O=C1C=C2CC[C@H]3[C@@H]4CC[C@H](Oc5c6ccccc6nc6ccccc56)[C@H]4CC[C@@H]3[C@H]2CC1	LOX IMVI melanoma	> 100 µM
CC(=O)OC1[C@@H](OC(C)=O)CN(OCc2ccccc2)C[C@H]1OC(C)=O (some centres not stated)	LOX IMVI melanoma	> 100 µM
Cc1ccc2c(CC(=O)O)cc(=O)oc2c1	LOX IMVI melanoma	> 100 µM
CC(C)(SCc1ccccc1)C(N)C(=O)O (configuration not stated)	LOX IMVI melanoma	> 100 µM
O=C(c1ccccc1)c1nn(-c2ccccc2)c2nc3nc(-c4ccccc4)cc(=O)n3nc12	LOX IMVI melanoma	78.7 µM
C=CCN1C[C@@H](C)N([C@@H](c2ccc(C(=O)N(CC)CC)cc2)c2cccc(OC)c2)C[C@@H]1C	LOX IMVI melanoma	> 100 µM
O=c1c2c3c(sc2nc2n1N=C(c1ccc([N+](=O)[O-])cc1)CS2)CCCC3	LOX IMVI melanoma	> 100 µM
O=C(NC(=O)c1cc2cc(Br)cc(Br)c2oc1=O)Oc1ccccc1	LOX IMVI melanoma	> 100 µM

Would you mind giving TGI for every molecule in the list below?
1. COc1ccc(/C=C2\CN(C)CC3C2=NN(c2ccccc2)C3c2ccc(OC)cc2)cc1 (configuration not stated)
2. Nc1ncnc2nn(C3OC(CO)C(O)C3O)nc12 (configuration not stated)
3. C[n+]1c(/C=C/c2ccc(/C=N/NC(=O)c3ccc(C(=O)N/N=C/c4ccc(/C=C/c5cn6ccccc6[n+]5C)cc4)cc3)cc2)cn2ccccc21
4. COC(=O)C1=COc2c(n(C)c3ccccc23)-c2ccccc21
5. CCOC(=O)c1nc2cc(C(F)(F)F)ccc2[n+]([O-])c1C

Solution:
> 100 µM
23 µM
> 100 µM
> 100 µM
> 100 µM
